# System: A-375
# protocol-text: Cytotoxicity against human A375 cells after 72 hrs by MTS assay
# Format: functional, cell-based
# measurement-setup: A-375, 72 h
# pIC50 annotations
The quantity pIC50 is defined as the negative base-10 logarithm of the molar concentration.

Completed entries (count: 4):
C=C(C)[C@@H]1CC[C@]2(C(=O)O)CC[C@]3(C)[C@H](CC[C@@H]4[C@@]5(C)CCC(NCCc6ccc(O)cc6)C(C)(C)[C@@H]5CC[C@]43C)[C@@H]12 (stereo partly specified)
5.30
C=C(CO)[C@@H]1CC[C@]2(CO)CC[C@]3(C)[C@H](CC[C@@H]4[C@@]5(C)CC[C@H](NCCc6ccc(O)cc6)C(C)(C)[C@@H]5CC[C@]43C)[C@@H]12
5.22
C=C(C)[C@@H]1CC[C@]2(CO)CC[C@]3(C)[C@H](CC[C@@H]4[C@@]5(C)CCC(NCCc6ccc(O)c(O)c6)C(C)(C)[C@@H]5CC[C@]43C)[C@@H]12 (stereo partly specified)
5.22
C=C(CNCCO)[C@@H]1CC[C@]2(CO)CC[C@]3(C)[C@H](CC[C@@H]4[C@@]5(C)CCC(NCCO)C(C)(C)[C@@H]5CC[C@]43C)[C@@H]12 (stereo partly specified)
5.22

The record that follows has no pIC50 shown yet.
Item: C=C(CNCCc1ccc(O)cc1)[C@@H]1CC[C@]2(CO)CC[C@]3(C)[C@H](CC[C@@H]4[C@@]5(C)CCC(NCCO)C(C)(C)[C@@H]5CC[C@]43C)[C@@H]12 (stereo partly specified) | pIC50: 5.30
